Target: hROMK (hKir1.1) (Homo sapiens (Human), UniProt P48048)
Sequence (P48048 whole entry): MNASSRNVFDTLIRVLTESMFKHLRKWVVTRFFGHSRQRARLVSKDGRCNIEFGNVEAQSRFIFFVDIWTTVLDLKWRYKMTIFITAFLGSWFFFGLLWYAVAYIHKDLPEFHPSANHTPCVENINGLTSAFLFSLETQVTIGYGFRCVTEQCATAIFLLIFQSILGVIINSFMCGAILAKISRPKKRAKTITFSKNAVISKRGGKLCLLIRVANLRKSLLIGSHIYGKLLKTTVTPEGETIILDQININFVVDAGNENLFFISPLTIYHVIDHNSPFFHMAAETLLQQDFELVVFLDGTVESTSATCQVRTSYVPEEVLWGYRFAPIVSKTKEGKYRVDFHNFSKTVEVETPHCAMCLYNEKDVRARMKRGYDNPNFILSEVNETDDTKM
Test: Thallium Flux Assay (ROMK channel functional thallium flux, FLIPR-Tetra)
Assay type: cell-based
Conditions: HEK293 cells stably expressing hROMK (hKir1.1); read-out: Thallium Flux IC50
Method: HEK293 cells stably expressing hROMK (hKir1.1) were grown at 37° C. in a 10% CO2 humidified incubator in complete growth media: Dulbecco's Modified Eagle Medium supplemented with non-essential amino acids, Penicillin/Streptomycin/Glutamine, G418 and FBS. […] The fluorescence intensity of wells containing 3 μM of a standard control ROMK inhibitor of the present invention is used to define the ROMK-sensitive component of thallium flux. […]
pIC50: −log10 of the molar value. Where a name gives a salt, the structure may show the parent alone.
quantity-kind: pIC50

molecule	quantity-kind	value
Cc1c([C@@H](O)CN2CCN3C[C@@H](c4ccc(C#N)c(F)c4)OC[C@H]3C2)ccc2c1COC2=O	pIC50	6.31
Cc1c([C@H](O)CN2CCN3C[C@@H](c4ccc5c(c4C)COC5=O)OC[C@@H]3C2)ccc2c1COC2=O	pIC50	6.64
COc1cc(CCN2CCN3C[C@@H](c4ccc5c(c4C)COC5=O)OC[C@@H]3C2)cc(F)c1C#N	pIC50	6.59
COc1c(CCN2CCN3C[C@H](c4ccc5c(c4C)COC5=O)OC[C@H]3C2)ccc(C#N)c1F	pIC50	6.62
COc1cc(C(O)CN2CCN3C[C@@H](c4ccc5c(c4)COC5=O)OC[C@@H]3C2)c(Cl)cc1C#N (stereo partly drawn) [Example 10, trifluoroacetate]	pIC50	6.26
Cc1c([C@@H]2CN3CCN(CCc4ccc5c(c4)CC(C)OC5=O)C[C@H]3CO2)ccc2c1COC2=O (stereo partly drawn)	pIC50	7.05
COc1cc([C@@H]2CN3CCN(CCc4ccc5c(c4C)COC5=O)C[C@H]3CO2)ccc1C#N	pIC50	6.96
Cc1c([C@H]2CN3CCN(CCc4ccc(-n5cnnn5)nc4)C[C@H]3CO2)ccc(F)c1C#N	pIC50	7.10
COc1cc(C(O)CN2CCN3C[C@@H](c4ccc5c(c4C)COC5=O)OC[C@@H]3C2)c(F)cc1C#N (stereo partly drawn) [Example 15]	pIC50	6.17
Cc1cc2c(cc1C(O)CN1CCN3C[C@@H](c4ccc5c(c4C)COC5=O)OC[C@@H]3C1)COC2=O (single isomer, unassigned) [Example 42]	pIC50	6.66
O=C1OCc2cc(CCN3CCN4C[C@H](c5ccc6c(c5)COC6=O)OC[C@@H]4C3)ccc21	pIC50	6.64
Cc1c([C@@H]2CN3CCN(C4CCc5cc(C#N)ccc5C4)C[C@H]3CO2)ccc2c1COC2=O (stereo partly drawn) [Example 100, trifluoroacetate]	pIC50	7.52
COc1cc([C@H]2CN3CCN(CC(O)c4ccc5c(c4C)COC5=O)C[C@H]3CO2)ccc1C#N (stereo partly drawn)	pIC50	6.37
Cc1c([C@@H]2CN3CCN(CCc4ccc5c(c4)COC5=O)C[C@@H]3CN2)ccc(F)c1C#N	pIC50	6.54
CCOc1cc(CCN2CCN3C[C@@H](c4ccc5c(c4C)COC5=O)OC[C@@H]3C2)ccc1C#N	pIC50	6.92
COc1c(C#N)ccc(CCN2CCN3C[C@@H](c4ccc5c(c4C)COC5=O)OC[C@@H]3C2)c1C	pIC50	7.22
Cc1c([C@@H]2CN3CCN(CC(O)c4ccc5c(c4C4CC4)COC5=O)C[C@H]3CO2)ccc2c1COC2=O (single isomer, unassigned) [Example 51]	pIC50	6.40
Cc1c([C@H](O)CN2CCN3C[C@@H](c4ccc5c(c4)COC5=O)OC[C@@H]3C2)ccc2c1COC2=O	pIC50	6.72
COc1cc(CCN2CCN3C[C@@H](c4ccc5c(c4C)COC5=O)NC[C@@H]3C2)ccc1C#N	pIC50	6.68
COc1cc(CCN2CCN3C[C@@H](c4ccc5c(c4C)COC5=O)OC[C@@H]3C2)ccc1C#N	pIC50	7.40
Cc1c([C@@H]2CN3CCN(CCc4ccc5c(c4)COC5=O)C[C@H]3CO2)ccc2c1COC2=O	pIC50	7.40
Cc1c(CCN2CCN3C[C@@H](c4ccc5c(c4)CCOC5=O)OC[C@@H]3C2)ccc2c1COC2=O	pIC50	6.24
Cc1c(CCN2CCN3C[C@H](c4ccc5c(c4)COC5=O)OC[C@@H]3C2)ccc2c1COC2=O	pIC50	6.92
COc1cc([C@H]2CN3CCN(CC(O)c4cc(OC)c(C#N)cc4F)C[C@@H]3CO2)ccc1C#N (stereo partly drawn)	pIC50	6.24
Cc1c([C@@H]2CN3CCN(CCc4ccc5c(c4C)COC5=O)C[C@H]3CO2)ccc(F)c1C#N	pIC50	7.22
Cc1c([C@@H]2CN3CCN(CC(O)c4cc(F)c(C#N)c(F)c4)C[C@H]3CO2)ccc2c1COC2=O (single isomer, unassigned) [Example 49]	pIC50	6.60
Cc1c([C@@H](O)CN2CCN3C[C@@H](c4ccc5c(c4)COC5=O)OC[C@@H]3C2)ccc2c1COC2=O	pIC50	6.44
